# System: SK-MEL-2
# experiment: NCI tumour cell line growth inhibition, 48 h
Activity calls are given as the source filed them. Rule as the data show it: active = GI50 up to about 1.1 µM and inactive = higher.
Your reply should match one of these outcome classes. active, inactive

O=C(N[C@@H](Cc1ccccc1)B(O)O)[C@H](Cc1cccc2ccccc12)NC(=O)N1CCOCC1 :: active
COc1ccc(-c2c(N)[n+]([O-])c3ccccc3[n+]2[O-])cc1OC :: inactive
CCN(CC(O)COc1ccc2c(c1)[n+]([O-])nc(N)[n+]2[O-])C(C)=O (stereo not given) :: inactive
COC(=O)c1ccc(/C=C/c2cc(O)ccc2O)cc1 :: inactive

# next compound below
Query string: Write down the call the test reported for this compound. Item: COc1cc2cnc(-c3ccccc3)cc2cc1OC
Result string: inactive

---

# Tested on: SK-MEL-5
# experiment: NCI tumour cell line growth inhibition, 48 h
The source made the active and inactive calls. No stated cut-off is given here; in the data, active = GI50 up to about 1.1 µM and inactive = higher.
Your reply should match one of these outcome classes. active, inactive

Completed entries (count: 6):
COC(=O)c1ccc2c(c1)CC1(C2)Cc2ccccc2C1=O (configuration not stated) :: inactive
Nc1ncnc2c(C3OC(CO)C(O)C3O)n[nH]c12 (configuration not stated) :: inactive
O=C(O)C1SCCS1 :: inactive
COc1cccc(NC(=O)C(C)(C)C)c1C=O :: inactive
O=C(CCC(=O)Nc1ccc(Cl)c(Cl)c1)CC(=O)c1ccc2ccccc2c1 :: inactive
Cc1ccc(S(=O)OC2C3CC4CC(C3)CC2C4)cc1 (configuration not stated) :: inactive

Query string: Write down the call the test reported for this compound. Item: COc1ccc2c(c1)C(=O)C(=O)c1cc(O)c(OC)c(OC)c1-2
Result string: active

---

# System: A549
# experiment: NCI tumour cell line growth inhibition, 48 h
Calls of active or inactive are those of the source. Rule as the data show it: active = GI50 up to about 1.1 µM and inactive = higher.
observation_type: GI50

C[C@H](CCC(=O)O)[C@H]1CC[C@H]2[C@@H]3[C@@H](O)C[C@@H]4C[C@H](O)CC[C@]4(C)[C@H]3C[C@H](O)[C@]12C :: > 100 µM (inactive)
COc1ccc(N2C(=O)C3c4[nH]c5ccccc5c4C4CCCCCCCC4C3C2=O)cc1 (configuration not stated) :: > 10 µM (inactive)
O=C1NC2(CCCCC2)C(=O)N1CCN(CCCl)CCCl :: 135 µM (inactive)
COc1cccc(NC(=O)C(=O)C2C=CCS2(=O)=O)c1 (configuration not stated) :: > 100 µM (inactive)
Cc1ccc(S(=O)OC2C3CC4CC(C3)CC2C4)cc1 (configuration not stated) :: > 100 µM (inactive)
COc1cc2c(cc1OCCCCOc1cc(-c3ccc(F)cc3)nc(C)n1)N=C[C@@H]1CCCN1C2=O :: 1.15 µM (inactive)

Query string: Would you mind telling me what GI50 value was observed for Cn1c2ccccc2c2cc(-c3ccccc3)c3c(c21)C(=O)c1ccccc1C3=O ?
Result string: 20.4 µM (inactive)

Query string: Would you mind telling me what GI50 value was observed for CN(C)c1ccc(C(=C(c2ccc(N(C)C)cc2)c2ccc(N(C)C)cc2)c2ccc(N(C)C)cc2)cc1 ?
Result string: 16.3 µM (inactive)

Query string: Would you mind telling me what GI50 value was observed for C=CC(=O)C#Cc1cnc(OC)nc1OC ?
Result string: 59 µM (inactive)

Query string: Would you mind telling me what GI50 value was observed for COC(=O)/C=C\C(C#N)(C#N)/N=C/c1cc(Br)cs1 ?
Result string: 18 µM (inactive)

---

# Test system: SW-620
# experiment: NCI tumour cell line growth inhibition, 48 h
Calls of active or inactive are those of the source. Cut-off read from the data, not from the text of the source: active = GI50 up to about 1.1 µM and inactive = higher.
Your reply should match one of these outcome classes. active, inactive

Completed entries (count: 3):
c1ccc(-c2cc(-c3cc(-c4ccccn4)[nH]n3)n[nH]2)nc1 :: inactive
COc1ccc(-c2sc(Br)c3c2C(=O)C2OC(=O)NC32)cc1OC (centres undefined) :: inactive
Cc1cccc(C(C)(C)C)c1NC(=O)C(C#N)C1=C(Cl)C(=O)c2ccccc2C1=O (centres undefined) :: inactive

# next compound below
Query string: Write down the call the test reported for this compound. Item: Cc1cc2c(c3oc(C4(C)OC4C4OC4C)cc(=O)c13)C(=O)c1c(O)c(C3CC(C)(N(C)C)C(O)C(C)O3)cc(C3CC(N(C)C)C(O)C(C)O3)c1C2=O (centres undefined)
Result string: active

---

# System: Malme-3M
# experiment: NCI tumour cell line growth inhibition, 48 h
Calls of active or inactive are those of the source. No stated cut-off is given here; in the data, active = GI50 up to about 1.1 µM and inactive = higher.
Your reply should match one of these outcome classes. active, inactive

Completed entries (count: 5):
CCC1=CC2CN3CCc4c([nH]c5ccccc45)C(C(=O)OC)(C2)C13 (centres undefined) :: inactive
Cc1cc(SCC(=O)c2ccccc2)nc2ccccc12 :: inactive
C[C@H](CCC(=O)O)[C@H]1CC[C@H]2[C@@H]3[C@@H](O)C[C@@H]4C[C@H](O)CC[C@]4(C)[C@H]3C[C@H](O)[C@]12C :: inactive
CN(C(=O)c1ccc(Cl)cc1)C(=S)N1CCN(c2ccccn2)CC1 :: inactive
COc1cccc(C2ON=C(c3ccccc3)N2C23CC4CC(CC(C4)C2)C3)c1 (centres undefined) :: inactive

Query string: Write down the call the test reported for this compound. Item: c1ccc2c(c1)N[C@@H]1c3[nH]c4ccccc4c3CC[C@H]21
Result string: inactive

Query string: Write down the call the test reported for this compound. Item: O=C(N[C@@H](Cc1ccccc1)B(O)O)[C@H](Cc1cccc2ccccc12)NC(=O)N1CCOCC1
Result string: active

Query string: Write down the call the test reported for this compound. Item: COC(=O)C(=O)C(C(=O)C(=O)Nc1ccc([N+](=O)[O-])cc1[N+](=O)[O-])c1nc2ccc([N+](=O)[O-])cc2nc1O (centres undefined)
Result string: inactive

Query string: Write down the call the test reported for this compound. Item: CC1=C2N3C[C@@H](n4c(=O)n(C)c(=O)n43)C23CCC1n1c(=O)n(C)c(=O)n13
Result string: inactive

Query string: Write down the call the test reported for this compound. Item: Cc1cc(Nc2ccc(S(=O)(=O)O)c3cc(S(=O)(=O)O)cc(S(=O)(=O)O)c23)c2ccccc2n1
Result string: inactive

Query string: Write down the call the test reported for this compound. Item: CCOC(=O)c1c2cccccc-2nc1Nc1cccc2c(C)ccnc12
Result string: inactive

---

Reported GI50 values for the following compounds.
# Test system: SW-620
# experiment: NCI tumour cell line growth inhibition, 48 h
Active and inactive are the calls of the source. Cut-off read from the data, not from the text of the source: active = GI50 up to about 1.1 µM and inactive = higher.

CC12CCCCC1=[N+]([O-])C(C)(C)N2O (stereo not drawn) :: > 100 µM (inactive)
CCOC(=O)C1C=C2O[C@@H]3OC4(CCCCC4)O[C@@H]3C2C2C(=O)CCC(=O)[C@@]12C(=O)OC (stereo partly drawn) :: > 100 µM (inactive)
CN(C(=O)c1ccco1)C(=S)N1CCN(c2ccccn2)CC1 :: > 100 µM (inactive)
O=C1c2ccccc2-c2nnc3c(c21)Cc1ccccc1C3 :: > 10 µM (inactive)
O=C1Nc2ccccc2/C1=N/Nc1nc(-c2ccccc2)cs1 :: > 100 µM (inactive)
O=C1NC2(CCCCC2)C(=O)N1CCN(CCCl)CCCl :: 102 µM (inactive)

Query string: Would you mind telling me what GI50 value was observed for O=C(/C=C1\Nc2ccccc2C(=O)N1c1ccccc1Cl)c1ccccc1 ?
Result string: > 100 µM (inactive)

Query string: Would you mind telling me what GI50 value was observed for C1CCSCCCCSCCCCSCCCCSC1 ?
Result string: > 100 µM (inactive)

Query string: Would you mind telling me what GI50 value was observed for O=C(O)CSCc1cccc2ccccc12 ?
Result string: > 100 µM (inactive)

Query string: Would you mind telling me what GI50 value was observed for COc1cccc(C2ON=C(c3ccccc3)N2C23CC4CC(CC(C4)C2)C3)c1 (stereo not drawn) ?
Result string: > 10 µM (inactive)

Query string: Would you mind telling me what GI50 value was observed for FC1=C2C3CCC(C3)C2C1(F)F (stereo not drawn) ?
Result string: > 100 µM (inactive)

Query string: Would you mind telling me what GI50 value was observed for CCCCc1ccc(Nc2nc(S)c3ncn(COCCO)c3n2)cc1 ?
Result string: 69 µM (inactive)

Query string: Would you mind telling me what GI50 value was observed for COC(=O)C12C3C4C1C1C2C3C41C(=O)N(C(C)C)C(C)C (stereo not drawn) ?
Result string: > 100 µM (inactive)

Query string: Would you mind telling me what GI50 value was observed for CSC(=S)NNC(=O)c1ccncc1 ?
Result string: 11.3 µM (inactive)

Query string: Would you mind telling me what GI50 value was observed for O=C(CCC(=O)Nc1ccc(Cl)c(Cl)c1)CC(=O)c1ccc2ccccc2c1 ?
Result string: > 100 µM (inactive)

Query string: Would you mind telling me what GI50 value was observed for C[C@@H](NC(=O)[C@@H]1C[C@]1(C)CO)c1cccc2ccccc12 ?
Result string: > 100 µM (inactive)

Query string: Would you mind telling me what GI50 value was observed for C=CC(=O)C#Cc1cnc(OC)nc1OC ?
Result string: 4.95 µM (inactive)

Query string: Would you mind telling me what GI50 value was observed for O=[N+]([O-])c1ccc(Cl)cc1N/N=C/c1cccs1 ?
Result string: > 100 µM (inactive)

Query string: Would you mind telling me what GI50 value was observed for O=c1/c(=C/c2ccc(-c3ccc(Cl)cc3Cl)o2)sc2n1[C@@H](c1ccc3c(c1)OCO3)C=C(c1cc(F)c(Cl)cc1Cl)N=2 ?
Result string: 35.8 µM (inactive)

Query string: Would you mind telling me what GI50 value was observed for CC(C)(C)C(=O)OCC1CCC(n2cnc3c(=O)[nH]c(N)nc32)O1 (stereo not drawn) ?
Result string: > 100 µM (inactive)

Query string: Would you mind telling me what GI50 value was observed for COc1ccc(C2SCC(=O)N2c2ccc(-n3c(-c4ccccc4)nc4ccccc4c3=O)cc2)cc1OC (stereo not drawn) ?
Result string: > 100 µM (inactive)

Query string: Would you mind telling me what GI50 value was observed for CN(C)/C=N/S(=O)(=O)c1nn2c(C=O)c(-c3ccc([N+](=O)[O-])cc3)nc2s1 ?
Result string: 2.52 µM (inactive)

Query string: Would you mind telling me what GI50 value was observed for COc1ccc(Cc2cc(Cc3ccc(OC)cc3)cc(Cc3ccc(OC)cc3)c2)cc1 ?
Result string: > 100 µM (inactive)
